Data provenance: patent US8791132B2

Could you please report measured Percentage inhibition of ligand binding, Adrenergic α2A for the items listed next?
Tgt: human recombinant adrenergic α2A receptor (Homo sapiens)
Construct: expressed in transfected cells; host or cells: insect Sf9 cells
Sequence (P08913 whole entry): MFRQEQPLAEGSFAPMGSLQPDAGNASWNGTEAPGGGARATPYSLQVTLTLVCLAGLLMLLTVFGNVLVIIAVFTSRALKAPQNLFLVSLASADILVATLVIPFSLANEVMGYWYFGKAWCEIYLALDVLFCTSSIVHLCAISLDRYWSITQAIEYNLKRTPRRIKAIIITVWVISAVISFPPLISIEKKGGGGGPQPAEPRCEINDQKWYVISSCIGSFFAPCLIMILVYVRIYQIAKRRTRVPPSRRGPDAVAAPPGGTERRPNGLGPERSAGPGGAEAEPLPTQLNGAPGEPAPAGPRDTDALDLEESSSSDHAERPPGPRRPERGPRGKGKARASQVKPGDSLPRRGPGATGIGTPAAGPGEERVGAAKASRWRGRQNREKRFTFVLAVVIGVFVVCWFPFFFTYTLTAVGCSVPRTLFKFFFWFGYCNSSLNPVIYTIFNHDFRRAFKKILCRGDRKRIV
Test summary: Radioligand binding, adrenergic α2A ([3H]MK-912)
Condition info: compound at 0.1 μM; [3H]MK-912; repeat assays, each datapoint shown; 0.1 µM
Express it in %; write the number only.

Ask | // Percentage inhibition of ligand binding, Adrenergic α2A lookup, key: OC(Cn1c2c(c3cccnc31)CN1CCCC1C2)c1ccncc1 (single isomer, unassigned) [37c]
Reply | 6

Ask | // Percentage inhibition of ligand binding, Adrenergic α2A lookup, key: CN1CCc2c(c3cc(Cl)ccc3n2CC(C)(O)c2cccnc2)C1 (single isomer, unassigned) [31a]
Reply | 27

Ask | // Percentage inhibition of ligand binding, Adrenergic α2A lookup, key: CN1CCc2c(c3cc(Cl)ccc3n2CC(O)c2ccncc2)C1 (single isomer, unassigned) [4a]
Reply | 24

Ask | // Percentage inhibition of ligand binding, Adrenergic α2A lookup, key: CC(C)(O)CCN1CCc2c(c3cc(Cl)ccc3n2CC(O)c2ccncc2)C1 (single isomer, unassigned) [11a]
Reply | −6

Ask | // Percentage inhibition of ligand binding, Adrenergic α2A lookup, key: Cc1ccc2c(c1)c1c(n2CC(O)c2ccncc2)CCN2CCCCC12 (single isomer, unassigned) [47a]
Reply | 10

Ask | // Percentage inhibition of ligand binding, Adrenergic α2A lookup, key: Cc1ccc2c(c1)c1c(n2CC(C)(O)c2ccc[n+]([O-])c2)CCN(C)C1 (single isomer, unassigned) [56b]
Reply | 17

Ask | // Percentage inhibition of ligand binding, Adrenergic α2A lookup, key: Cc1ccc2c(c1)c1c(n2CC(O)c2ccncc2)CN(C)CC1 (stereo not shown) [8a]
Reply | 15

Ask | // Percentage inhibition of ligand binding, Adrenergic α2A lookup, key: CN1CCc2c(n(CC(C)(O)c3cccnc3)c3ccc(Cl)cc23)C1 (single isomer, unassigned) [28b]
Reply | 24

Ask | // Percentage inhibition of ligand binding, Adrenergic α2A lookup, key: CC(O)(Cn1c2c(c3cc(Cl)ccc31)CNCC2)c1ccncn1 (single isomer, unassigned) [42b]
Reply | 12

Ask | // Percentage inhibition of ligand binding, Adrenergic α2A lookup, key: Cc1cnc2c(c1)c1c(n2CC(C)(O)c2cccnc2)CCN2CCCC12 (single isomer, unassigned) [26d]
Reply | 0

Ask | // Percentage inhibition of ligand binding, Adrenergic α2A lookup, key: Cc1ccc2c(c1)c1c(n2CC(C)(O)c2ccc(F)cc2)CCN(C)C1 (stereo not shown) [compound 90]
Reply | 22

Ask | // Percentage inhibition of ligand binding, Adrenergic α2A lookup, key: CN1CCc2c(c3cc(Cl)ccc3n2CC(O)c2cccnc2)C1 (single isomer, unassigned) [7b]
Reply | 25

Ask | // Percentage inhibition of ligand binding, Adrenergic α2A lookup, key: Cc1ccc2c(c1)c1c(n2CC(OC(=O)C(C)C)c2ccncc2)CCN(C)C1 (single isomer, unassigned) [54b]
Reply | 66

Ask | // Percentage inhibition of ligand binding, Adrenergic α2A lookup, key: CC(=O)c1ccc2c(c1)c1c(n2CC(O)c2ccncc2)CCN(C)C1 (single isomer, unassigned) [49a]
Reply | 1

Ask | // Percentage inhibition of ligand binding, Adrenergic α2A lookup, key: Cc1cnc2c(c1)c1c(n2CC(O)c2ccncc2)CCN(C)C1 (single isomer, unassigned) [55b]
Reply | 7

Ask | // Percentage inhibition of ligand binding, Adrenergic α2A lookup, key: Cc1ccc2c(c1)c1c(n2CC(O)c2ccc(C(=O)N(C)C)cc2)CCN(C)C1 (single isomer, unassigned) [52b]
Reply | 29

Ask | // Percentage inhibition of ligand binding, Adrenergic α2A lookup, key: Cc1ccc2c(c1)c1c(n2CC(O)c2ccncc2)CCN(C)CC1 (single isomer, unassigned) [13a]
Reply | −2

Ask | // Percentage inhibition of ligand binding, Adrenergic α2A lookup, key: Cc1ccc2c(c1)c1c(n2CC(O)c2cccnc2)CN(C)CC1 (stereo not shown) [compound 43]
Reply | −1

Ask | // Percentage inhibition of ligand binding, Adrenergic α2A lookup, key: CC(O)(Cn1c2c(c3cc(Cl)ccc31)CNCC2)c1ccncn1 (single isomer, unassigned) [42a]
Reply | 3

Ask | // Percentage inhibition of ligand binding, Adrenergic α2A lookup, key: Cc1cnc2c(c1)c1c(n2CC(O)c2ccncc2)CCNC1 (single isomer, unassigned) [58b]
Reply | 0

Ask | // Percentage inhibition of ligand binding, Adrenergic α2A lookup, key: Cc1ccc2c(c1)c1c(n2CC(O)c2ccncc2)CC2CCCN2C1 (single isomer, unassigned) [76c]
Reply | 5

Ask | // Percentage inhibition of ligand binding, Adrenergic α2A lookup, key: Cc1ccc2c(c1)c1c(n2CC(O)c2ccncc2)C(C)N2CCC1C2 (single isomer, unassigned) [38a]
Reply | 14

Ask | // Percentage inhibition of ligand binding, Adrenergic α2A lookup, key: CN1CCc2c(c3ccc(Cl)cc3n2CC(O)c2ccncc2)C1 (single isomer, unassigned) [53b]
Reply | 12

Ask | // Percentage inhibition of ligand binding, Adrenergic α2A lookup, key: Cc1ccc2c(c1)c1c(n2CC(C)(O)c2ccc(C)nc2)CCN(C)C1 (single isomer, unassigned) [29a]
Reply | 39

Ask | // Percentage inhibition of ligand binding, Adrenergic α2A lookup, key: Cc1ccc2c(c1)c1c(n2CC(O)c2ccncc2)CC2CCCN2C1 (single isomer, unassigned) [76d]
Reply | 40

Ask | // Percentage inhibition of ligand binding, Adrenergic α2A lookup, key: COc1cccc2c3c(n(CC(O)c4ccncc4)c12)CCN(C)C3 (single isomer, unassigned) [44b]
Reply | 1

Ask | // Percentage inhibition of ligand binding, Adrenergic α2A lookup, key: Cc1ccc2c(c1)c1c(n2CC(O)c2ccncc2)CN(C)CC1 (single isomer, unassigned) [8b]
Reply | 12

Ask | // Percentage inhibition of ligand binding, Adrenergic α2A lookup, key: CN1CCc2c(c3cccc(Cl)c3n2CC(O)c2ccncc2)C1 (single isomer, unassigned) [45b]
Reply | 16

Ask | // Percentage inhibition of ligand binding, Adrenergic α2A lookup, key: Cc1ccc2c(c1)c1c(n2CC(O)c2ccncc2)CC2CCCN2C1 (single isomer, unassigned) [76b]
Reply | 18

Ask | // Percentage inhibition of ligand binding, Adrenergic α2A lookup, key: COc1ccc(C(O)Cn2c3c(c4cc(C)ccc42)CCN(C)C3)cc1 (single isomer, unassigned) [20b]
Reply | 28

Ask | // Percentage inhibition of ligand binding, Adrenergic α2A lookup, key: Cc1ccc2c(c1)c1c(n2CC(O)c2cccnc2)CCNC1 (single isomer, unassigned) [9a]
Reply | 4
